- Test system: EKVX
- ASSAY_PROTOCOL: NCI tumour cell line growth inhibition, 48 h
Activity calls are given as the source filed them. Rule as the data show it: active = GI50 up to about 1.1 µM and inactive = higher.
Parameter call: string, one of active, inactive

CC1=C(O)C(=O)C=C2C1=CC=C1[C@@]2(C)CC[C@@]2(C)[C@@H]3C[C@](C)(C(=O)O)CC[C@]3(C)CC[C@]12C    active
COc1ccc(NC(/C(C(=O)c2ccccc2)=C(\O)C(=O)/C=C(\O)c2ccccc2)c2ccc(OC)cc2)cc1 (stereo not given)    inactive

What outcome does the record of this test show for `CC(=O)OC[C@H]1On2nnnc2[C@H](OC(C)=O)[C@@H](OC(C)=O)[C@@H]1OC(C)=O` ?
inactive

Would you kindly repeat that for `O=C(c1cc2c(C(F)(F)F)onc2c2ccccc12)C(F)(F)F` ?
inactive

Would you kindly repeat that for C#CC1NC(=O)C1N(CC)CC (stereo not given) ?
inactive

Would you kindly repeat that for `CCCCCCCCCCCCCCCCNC(=O)/C(O)=C/C(=O)c1ccc(C)cc1` ?
inactive

Would you kindly repeat that for `COc1cc2nc(-c3ccccc3F)nc(O)c2cc1OC` ?
inactive

Would you kindly repeat that for O=C1OC2(OC2c2ccccc2)c2ccccc21 (stereo not given) ?
inactive

Would you kindly repeat that for `COc1ccccc1NCc1cccc2c(=O)c3ccc(Cl)cc3oc12` ?
inactive

Would you kindly repeat that for `OCC#CCNCl` ?
inactive
